Origin of values: ChEMBL document CHEMBL1201862

System: SF-539
Assay: NCI tumour cell line growth inhibition, 48 h
Calls of active or inactive are those of the source. Cut-off read from the data, not from the text of the source: active = GI50 up to about 1.1 µM and inactive = higher.

Compound: CC(C)CC1C(=O)NCCC(NC(=O)C(N)Cc2ccc(O)cc2)C(=O)NC(Cc2ccccc2)C(=O)NC(Cc2ccccc2)NC1=O (stereo not given)
GI50: > 100 µM (inactive)
//
Compound: CC[C@@]1(C)CCC2c3ccc(O)cc3CC[C@H]2C1C (stereo not given in full)
GI50: 19.9 µM (inactive)
//
Compound: N/C(S)=N/N=C/c1cc(CN2CCOCC2)c(N)cn1
GI50: 27.5 µM (inactive)
//
Compound: O=C(n1c(=O)n(-c2ccc(Cl)cc2)c(=O)n1C(=O)C(Cl)(Cl)Cl)C(Cl)(Cl)Cl
GI50: > 100 µM (inactive)
//
Compound: CC1(C)NC(C(=O)c2ccccc2)=[N+]([O-])C1(O)c1ccccc1 (stereo not given)
GI50: > 100 µM (inactive)
//
Compound: CC(CC(=O)Nc1ccc(NC(=O)CC(C)/N=N\C(N)=O)cc1)/N=N\C(N)=O (stereo not given)
GI50: > 100 µM (inactive)
//
Compound: Fc1ccc2c(c1)SC1Oc3ccccc3-c3c1c-2nn3-c1ccccc1 (stereo not given)
GI50: > 100 µM (inactive)
//
Compound: O=C(O)/C(=C\c1ccccc1Cl)S(=O)(=O)c1ccccc1
GI50: > 100 µM (inactive)
//
Compound: O=S(=O)(O)c1ccc2cc(/N=N/c3c(O)ccc4ccccc34)ccc2c1
GI50: > 100 µM (inactive)
//
Compound: Nc1ncnc2c1N=CN(Oc1ccccc1)N2
GI50: > 100 µM (inactive)
